Target: MAGE-A11:PCF11 (Homo sapiens (Human), UniProt P43364)
Sequence (P43364 218-429): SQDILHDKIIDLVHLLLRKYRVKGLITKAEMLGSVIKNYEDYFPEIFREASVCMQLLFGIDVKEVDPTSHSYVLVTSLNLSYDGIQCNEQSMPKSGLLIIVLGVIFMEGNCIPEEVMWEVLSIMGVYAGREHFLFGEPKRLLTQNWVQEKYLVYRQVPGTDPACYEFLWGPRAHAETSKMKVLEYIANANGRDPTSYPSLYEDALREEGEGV
Experiment: TR-FRET single point screening at 15 μM
Type: binding
Parameters: unit not given here
Details: single point TR-FRET screening at 15 μM against MAGE-A11:PCF11
MEASUREMENT_KIND: TR-FRET signal

Recorded TR-FRET signal for FC(F)(F)Oc1ccccc1CN(CCCCNc1ccnc2cc(Cl)ccc12)Cc1ccccc1 [SJ000520459] on MAGE-A11:PCF11 (Homo sapiens (Human), UniProt P43364) was 30.86

MAGE-A11:PCF11 (Homo sapiens (Human), UniProt P43364) assay, compound Clc1ccc2c(NCCCCN(Cc3ccccc3)Cc3ccc4ccccc4c3)ccnc2c1 [SJ000361205] , recorded TR-FRET signal = 24.64

Tested on MAGE-A11:PCF11 (Homo sapiens (Human), UniProt P43364): Clc1ccc2c(NC3CCN(Cc4ccccc4)CC3)ccnc2c1 [SJ000357524] . Observed TR-FRET signal: 6.554

Case COc1ccc2nc3cc(Cl)ccc3c(NCCCNCC3CCOC3)c2c1 (centres unmarked) [SJ000521003] , MAGE-A11:PCF11 (Homo sapiens (Human), UniProt P43364), TR-FRET signal recorded as −442.3

// returns TR-FRET signal for CCCN(CCCCNc1ccnc2cc(Cl)ccc12)Cc1cc(Br)ccc1O [SJ000311196] with MAGE-A11:PCF11 (Homo sapiens (Human), UniProt P43364); value = 5.724

Noted TR-FRET signal for Clc1ccc2c(NCCCCN(Cc3ccccc3)Cc3cccc4c3OCO4)ccnc2c1 [SJ000520436] , tested on MAGE-A11:PCF11 (Homo sapiens (Human), UniProt P43364): 21.65

Tested system MAGE-A11:PCF11 (Homo sapiens (Human), UniProt P43364); TR-FRET signal recorded for COc1ccc(OC(F)(F)F)cc1CN(CCCCNc1ccnc2cc(Cl)ccc12)Cc1ccccc1 [SJ000520447] was 26.66

For the compound COc1ccc2nc3cc(Cl)ccc3c(NCCCNCc3ccc(Cl)cc3Cl)c2c1 [SJ000522958] , the measured TR-FRET signal on MAGE-A11:PCF11 (Homo sapiens (Human), UniProt P43364) was −97.83

So the reported TR-FRET signal for COc1ccc(F)cc1CN1CCC(Nc2ccnc3cc(Cl)ccc23)CC1 [SJ000357493] , on MAGE-A11:PCF11 (Homo sapiens (Human), UniProt P43364), turned out to be 6.153

Record Oc1ccccc1CN1CCC(Nc2ccnc3cc(Cl)ccc23)CC1 [SJ000357529] ; system MAGE-A11:PCF11 (Homo sapiens (Human), UniProt P43364); TR-FRET signal = 22.15

Given the compound CCCN(CCC)CCCNc1c2ccc(Cl)cc2nc2ccc(OC)cc12 [SJ000520917] and test system MAGE-A11:PCF11 (Homo sapiens (Human), UniProt P43364), the measured TR-FRET signal is −288.2
